The origin of these recorded values is patent US20230093265A1.

# target: T1, purified prostasomes (from human seminal plasma) (human)
# T1 construct: Not a single protein: exosome-type vesicle purified from seminal plasma
# assay overview: direct ELISA, coated purified prostasomes, biotinylated scFv at 4 µg/mL, streptavidin-HRP
result type: Absorbance (absorbance at 450 nm)
Kindly provide the numeric value in absorbance at 450 nm only, without the unit symbol.

Use the examples below as a reference point.
binder	measurement units	Absorbance
human synthetic scFv fragment 5 (scFv, also called scFv 5) scFv: EVQLLESGGGLVQPGGSLRLSCAASGFTFSSYAMSWVRQAPGKGLEWVSAISGSGGSTYYASVKGRFTISRDNSKNTLYLQMNSLRAEDTAVYYCARSYSWYSRGPSLDYWGQGTLVTVSSGGGGSGGGGSGGGGSDIQMTQSPSSLSASVGDRVTITCRASQSISSYLNWYQQKPGKAPKLLIYAASSLQSGVPSRFSGSGSGTDFTLTISSLQPEDFATYYCQQAFYAHLLTFGQGTKLEIKR	absorbance at 450 nm	0.617
human synthetic scFv fragment 9 (scFv, also called scFv 9) scFv: EVQLLESGGGLVQPGGSLRLSCAASGFTFSSYAMSWVRQAPGKGLEWVSAISGSGGSTYYASVKGRFTISRDNSKNTLYLQMNSLRAEDTAVYYCARSHYGSLDYWGQGTLVTVSSGGGGSGGGGSGGGGSDIQMTQSPSSLSASVGDRVTITCRASQSISSYLNWYQQKPGKAPKLLIYAASSLQSGVPSRFSGSGSGTDFTLTISSLQPEDFATYYCQQFSYTLSTFGQGTKLEIKR	absorbance at 450 nm	1.29

Read the next record carefully.
Please report the recorded Absorbance for human synthetic scFv fragment 11 (scFv, also called scFv 11) scFv: EVQLLESGGGLVQPGGSLRLSCAASGFTFSSYAMSWVRQAPGKGLEWVSAISGSGGSTYYASVKGRFTISRDNSKNTLYLQMNSLRAEDTAVYYCARYTYYVGGFDYWGQGTLVTVSSGGGGSGGGGSGGGGSDIQMTQSPSSLSASVGDRVTITCRASQSISSYLNWYQQKPGKAPKLLIYAASSLQSGVPSRFSGSGSGTDFTLTISSLQPEDFATYYCQQGFVLSTFGQGTKLEIKR .
0.066
